All values here come from patent US20260241012A1.

Target: N-terminal HiBiT tagged BCL6 (Homo sapiens)
Construct: expressed in transfected cells; host or cells: HT1080 (ATCC CCL-121), stably transduced with lentivirus pLV-UBC-N-HiBiT-BCL6-PGK-puro
Test: HiBiT based degradation assay
Format: cell-based
Conditions: HT1080 cells expressing N-terminal HiBiT tagged BCL6; 5 hours of incubation; BCL6 degradation normalized with DMSO control
Procedure: Human BCL6 protein coding open reading frame fused with N-terminal HiBiT coding sequence was synthesized from Integrated DNA Technologies (IDT). […] HT1080 cells expressing N-terminal HiBiT tagged BCL6 were dispensed into a 384-well plate pre-spotted with compounds at varying concentrations. […] After incubation, luminescence was read on a PHERAstar FSX Plate Reader (BMG). […]

{"columns": ["compound", "tgt", "Ymin (5 hr)"],
 "data": [
  ["CNC(=O)COc1cc2cc(Nc3nc(N4CCC5(CCN(CC6CCN(c7cc8c(cc7F)c(C7CCC(=O)NC7=O)nn8C)CC6)CC5)CC4)ncc3Cl)cnc2n(C(C)C)c1=O (stereo not drawn) [Compound 239]", "N-terminal HiBiT tagged BCL6 (Homo sapiens)", "++++ (Ymin < 30%)"],
  ["CNC(=O)COc1cc2cc(Nc3nc(N4CC5(CCC(Nc6ccc7c(C8CCC(=O)NC8=O)nn(C)c7c6)CC5)C4)ncc3Cl)cnc2n(C)c1=O (stereo not drawn) [Compound 138]", "N-terminal HiBiT tagged BCL6 (Homo sapiens)", "++++ (Ymin < 30%)"],
  ["CNC(=O)COc1cc2cc(Nc3nc(N4CCN(c5cccc6c(C7CCC(=O)NC7=O)nn(C)c56)CC4)ncc3Cl)cnc2n(C(C)C)c1=O (stereo not drawn) [Compound 166]", "N-terminal HiBiT tagged BCL6 (Homo sapiens)", "+++ (30% ≤ Ymin < 50%)"],
  ["CNC(=O)COc1cc2cc(Nc3nc(N4CCN(CC5CCN(c6ccc7c(C8CCC(=O)NC8=O)nn(C)c7c6)CC5)CC4)ncc3Cl)cnc2n(C(C)C)c1=O (stereo not drawn) [Compound 104]", "N-terminal HiBiT tagged BCL6 (Homo sapiens)", "+++ (30% ≤ Ymin < 50%)"],
  ["CNC(=O)COc1cc2cc(Nc3nc(N4CC5(CN(CC6CCN(c7ccc8c(C9CCC(=O)NC9=O)nn(C)c8c7)CC6)C5)C4)ncc3Cl)cnc2n(C)c1=O (stereo not drawn) [Compound 118]", "N-terminal HiBiT tagged BCL6 (Homo sapiens)", "++++ (Ymin < 30%)"]
]}
